Taken from patent US12110281B2.

Listed below: ALT values (average value) values for each entry.
Test system: dimethylnitrosamine (DMN)-induced liver injury male SD rats
Experiment: Liver function-improving activities by oral administration in the liver injury model (1), 3 weeks
Assay type: in vivo, rat
Settings: serum, 0 week (Day 0, before administration of test compound), 25 mg/kg oral once a day
Procedure: The compounds according to the present invention were orally administered to dimethylnitrosamine (DMN)-induced liver injury male SD rats for 3 weeks, so as to evaluate liver function-improving activities. […] Blood samples were collected on Day 3 after the completion of the first-week liver injury inducement and then the ALT (Alanine Transaminase) values and the AST (Aspartate Transaminase) values were measured so as to confirm the liver injury thereof. […]

molecule	ALT values (average value)
CCN(CC)CCOc1ccc(-c2ccc(C(=S)NC(C)C)s2)cc1OC.Cl [Example 10]	67.46 U/L
CCN(CC)CCOc1ccc(-c2ccc(C(=O)N3CCN(C)CC3)s2)cc1OC.Cl.Cl [Example 2]	67.24 U/L
CCN(CC)CCOc1ccc(-c2ccc(C(=O)NC(C)C)s2)cc1OC.Cl [Example 9]	67.64 U/L
CCN(CC)CCOc1ccc(-c2ccc(C(=O)NCCN(C(C)C)C(C)C)s2)cc1OC.Cl.Cl [Example 6]	68.02 U/L

----------
Test system: dimethylnitrosamine (DMN)-induced liver injury male SD rats
Assay: Liver function-improving activities by oral administration in the liver injury model (1), 3 weeks
Type: in vivo, rat
Settings: serum, 1 week, 25 mg/kg oral once a day
Description: The compounds according to the present invention were orally administered to dimethylnitrosamine (DMN)-induced liver injury male SD rats for 3 weeks, so as to evaluate liver function-improving activities. […] Blood samples were collected on Day 3 after the completion of the first-week liver injury inducement and then the ALT (Alanine Transaminase) values and the AST (Aspartate Transaminase) values were measured so as to confirm the liver injury thereof. […]
// classify: if (AST values (average value) < 200 U/L) Yes else No

mol	groupLabel
CCN(CC)CCOc1ccc(-c2ccc(C(=O)N3CCN(C)CC3)s2)cc1OC.Cl.Cl	No
COc1cc(-c2ccc(C(=O)NCCN(C(C)C)C(C)C)s2)ccc1O.Cl	Yes
CCN(CC)CCOc1ccc(-c2ccc(C(=O)NCCN(C(C)C)C(C)C)s2)cc1OC.Cl.Cl	No
CCN(CC)CCOc1ccc(-c2ccc(C(=O)NC(C)C)s2)cc1OC.Cl	No

----------
Listing of entries alongside the reported AST values (average value).
System: dimethylnitrosamine (DMN)-induced liver injury male SD rats
Test: Liver function-improving activities by oral administration in the liver injury model (1), 3 weeks
Format: in vivo, rat
Conditions: serum, 0 week (Day 0, before administration of test compound), 25 mg/kg oral once a day
valueType: AST values (average value) (U/L)

compound	measurement
CCN(CC)CCOc1ccc(-c2ccc(C(=O)NCC3(N(C)C)CCOCC3)s2)cc1OC.Cl.Cl [Example 21]	142.10
CCN(CC)CCOc1ccc(-c2ccc(C(=O)NCCN(C(C)C)C(C)C)s2)cc1OC.Cl.Cl [Example 6]	141.78
CCN(CC)CCOc1ccc(-c2ccc(C(=O)NC(C)C)s2)cc1OC.Cl [Example 9]	140.64
CCN(CC)CCOc1ccc(-c2ccc(C(=O)N3CCN(C)CC3)s2)cc1OC.Cl.Cl [Example 2]	143.32
CCN(CC)CCOc1ccc(-c2ccc(C(=S)NC(C)C)s2)cc1OC.Cl [Example 10]	145.00
COc1cc(-c2ccc(C(=O)NCCN(C(C)C)C(C)C)s2)ccc1O.Cl [Example 5]	137.66
COc1cc(-c2ccc(C(=O)NCC3(N(C)C)CCOCC3)s2)ccc1O.Cl [Example 20]	136.28

----------
System: dimethylnitrosamine (DMN)-induced liver injury male SD rats
Test: Liver function-improving activities by oral administration in the liver injury model (1), 3 weeks
Type: in vivo, rat
Details: serum, 1 week, 25 mg/kg oral once a day
Labelling field: enter t if recorded ALT values (average value) is less than 90 U/L. Enter f if it equals or exceeds that cut-off.

compound	groupLabel
CCN(CC)CCOc1ccc(-c2ccc(C(=O)N3CCN(C)CC3)s2)cc1OC.Cl.Cl [Example 2]	f
CCN(CC)CCOc1ccc(-c2ccc(C(=O)NC(C)C)s2)cc1OC.Cl [Example 9]	f
CCN(CC)CCOc1ccc(-c2ccc(C(=O)NCC3(N(C)C)CCOCC3)s2)cc1OC.Cl.Cl [Example 21]	f
CCN(CC)CCOc1ccc(-c2ccc(C(=S)NC(C)C)s2)cc1OC.Cl [Example 10]	t
COc1cc(-c2ccc(C(=O)NCC3(N(C)C)CCOCC3)s2)ccc1O.Cl [Example 20]	t
CCN(CC)CCOc1ccc(-c2ccc(C(=O)NCCN(C(C)C)C(C)C)s2)cc1OC.Cl.Cl [Example 6]	t
COc1cc(-c2ccc(C(=O)NCCN(C(C)C)C(C)C)s2)ccc1O.Cl [Example 5]	f

----------
AST values (average value) overview
Test system: dimethylnitrosamine (DMN)-induced liver injury male SD rats
Test: Liver function-improving activities by oral administration in the liver injury model (1), 3 weeks
Assay type: in vivo, rat
Details: serum, 1 week, 25 mg/kg oral once a day
valueType: AST values (average value) (U/L)

molecule	valueType	unitOfMeasurement	measurement
CCN(CC)CCOc1ccc(-c2ccc(C(=S)NC(C)C)s2)cc1OC.Cl [Example 10]	AST values (average value)	U/L	202.52
CCN(CC)CCOc1ccc(-c2ccc(C(=O)NCC3(N(C)C)CCOCC3)s2)cc1OC.Cl.Cl [Example 21]	AST values (average value)	U/L	201.30
COc1cc(-c2ccc(C(=O)NCC3(N(C)C)CCOCC3)s2)ccc1O.Cl [Example 20]	AST values (average value)	U/L	194.88
